- assay_target: UniProt Q13464
- procedure_details: ROCK assay (LABCHIP peptide phosphorylation), ROCK1
- Assay type: biochemical
- test_parameters: 5 μM ATP, 1.5 μM peptide substrate; read-out: ROCK1 IC50
pIC50: −log10 of the molar value.
observed_property: pIC50

Known pIC50 results, listed for orientation:
item_smiles	meas_value
O=C(Nc1ccc(-c2n[nH]c(=O)c3ccccc23)cc1)c1cnn2ccccc12	7.00 to 10.00
O=C(Nc1ccc(-c2n[nH]c(=O)c3ccccc23)c(Cl)c1)c1nn(CC2CCOCC2)c2ccccc12	7.00 to 10.00
CC1(C)CN(C(=O)Cc2ccc(-c3n[nH]c(=O)c4ccccc34)cc2)c2ccccc21	6.00 to 7.00

Attention now shifts to the item below.
Exercise: Look up pIC50: O=C(Nc1ccc(-c2n[nH]c(=O)c3ccccc23)cc1)c1n[nH]c2c1C(=O)CCC2
Solution: 7.00 to 10.00

====

- assay_target: ROCK1 (Homo sapiens (Human), UniProt Q13464)
- Sequence (Q13464 whole entry, species assumed): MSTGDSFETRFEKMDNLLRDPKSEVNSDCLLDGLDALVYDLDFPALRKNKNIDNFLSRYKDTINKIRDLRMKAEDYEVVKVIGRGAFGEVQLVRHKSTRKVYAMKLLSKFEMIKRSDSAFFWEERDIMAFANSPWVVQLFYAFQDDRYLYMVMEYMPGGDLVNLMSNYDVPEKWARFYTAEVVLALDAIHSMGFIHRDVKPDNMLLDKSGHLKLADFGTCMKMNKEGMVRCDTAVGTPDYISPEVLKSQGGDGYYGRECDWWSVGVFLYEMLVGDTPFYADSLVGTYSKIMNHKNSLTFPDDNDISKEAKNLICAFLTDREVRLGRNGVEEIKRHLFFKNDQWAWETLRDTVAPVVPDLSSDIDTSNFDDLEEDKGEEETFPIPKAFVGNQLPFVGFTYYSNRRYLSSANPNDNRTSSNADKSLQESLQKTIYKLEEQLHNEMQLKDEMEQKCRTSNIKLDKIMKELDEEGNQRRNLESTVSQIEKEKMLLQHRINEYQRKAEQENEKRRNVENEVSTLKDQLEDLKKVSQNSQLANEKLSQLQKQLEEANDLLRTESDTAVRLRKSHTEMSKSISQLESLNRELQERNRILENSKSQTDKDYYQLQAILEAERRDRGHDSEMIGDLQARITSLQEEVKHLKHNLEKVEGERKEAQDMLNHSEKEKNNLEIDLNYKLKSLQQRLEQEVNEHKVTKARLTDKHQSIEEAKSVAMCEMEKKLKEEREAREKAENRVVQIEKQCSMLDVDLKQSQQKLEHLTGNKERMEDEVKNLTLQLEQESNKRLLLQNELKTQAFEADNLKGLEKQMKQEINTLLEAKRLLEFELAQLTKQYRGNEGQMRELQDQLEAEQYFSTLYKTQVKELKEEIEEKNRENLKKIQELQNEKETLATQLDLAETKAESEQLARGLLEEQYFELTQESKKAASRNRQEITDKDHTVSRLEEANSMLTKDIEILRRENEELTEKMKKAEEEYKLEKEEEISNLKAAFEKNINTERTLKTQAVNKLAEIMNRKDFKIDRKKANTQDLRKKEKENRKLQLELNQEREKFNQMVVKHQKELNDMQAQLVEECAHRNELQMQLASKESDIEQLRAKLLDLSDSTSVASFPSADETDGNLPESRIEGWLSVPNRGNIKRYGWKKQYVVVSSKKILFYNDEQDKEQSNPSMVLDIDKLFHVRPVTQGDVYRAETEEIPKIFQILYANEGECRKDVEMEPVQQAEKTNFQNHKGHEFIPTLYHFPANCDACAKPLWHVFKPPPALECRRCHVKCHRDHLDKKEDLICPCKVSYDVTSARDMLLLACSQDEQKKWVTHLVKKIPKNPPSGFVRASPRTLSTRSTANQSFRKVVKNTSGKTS
- procedure_details: ROCK assay (LABCHIP peptide phosphorylation), ROCK1
- Assay type: biochemical
- test_parameters: 5 μM ATP, 1.5 μM peptide substrate; read-out: ROCK1 IC50
Counter-ions that a name gives are not always drawn.
Below, each entry is listed with its recorded IC50.

The cases that follow already have their IC50 on record.
molecule	IC50
O=C(c1ccc2c(c1)N(C(=O)Cc1ccc(-c3n[nH]c(=O)c4ccccc34)cc1)CC2)N1CCOCC1	101 to 1000 nM
Cn1nc2c(c1C(=O)Nc1ccc(-c3n[nH]c(=O)c4ccccc34)cc1)CCCC2	0.1 to 100 nM
CCn1c(C(=O)Nc2ccc(-c3n[nH]c(=O)c4ccccc34)cc2)cc2ccccc21	0.1 to 100 nM
Cc1c(C(=O)Nc2ccc(-c3n[nH]c(=O)c4ccccc34)cc2)nnn1-c1ccccc1F	0.1 to 100 nM
O=C(Nc1ccc(-c2n[nH]c(=O)c3ccccc23)c(CO)c1)c1nn(CC2CCOC2)c2ccccc12 (centres unmarked)	1000 to 50000 nM
Cc1cc(NC(=O)c2nn(CC3CNC3)c3ccccc23)ccc1-c1n[nH]c(=O)c2ccccc12 [Example 326, TFA]	0.1 to 100 nM

Exercise: Under ROCK1 (Homo sapiens (Human), UniProt Q13464): IC50 value of Cc1ccc2[nH]c(C(=O)Nc3ccc(-c4n[nH]c(=O)c5ccccc45)cc3)cc2c1 ?
Solution: 0.1 to 100 nM

Exercise: Next record, please: CCCc1cc(C(=O)Nc2ccc(-c3n[nH]c(=O)c4ccccc34)cc2)nn1C
Solution: 0.1 to 100 nM

====

// reported IC50 for each item listed
- assay_target: ROCK1 (Homo sapiens (Human), UniProt Q13464)
- procedure_details: ROCK assay (LABCHIP peptide phosphorylation), ROCK1
- Type: biochemical
- test_parameters: 5 μM ATP, 1.5 μM peptide substrate; read-out: ROCK1 IC50

Exercise: # query: IC50 of entry O=c1[nH]nc(-c2ccc(Nc3nc(-c4ccccc4)cs3)cc2)c2ccccc12
Solution: 1000 to 50000 nM

Exercise: Now this one: O=C(Nc1ccc(-c2n[nH]c(=O)c3ccccc23)cc1)c1cnn(CC(F)F)c1
Solution: 101 to 1000 nM

Exercise: Same for O=C(O)Cn1nc(C(=O)Nc2ccc(-c3n[nH]c(=O)c4ccccc34)cc2)c2ccccc21
Solution: 101 to 1000 nM

Exercise: And the next one, O=C(Nc1ccc(-c2c[nH]c(=O)c3ccccc23)cc1)c1onc2ccccc12 ?
Solution: 0.1 to 100 nM

====

Consider the following molecules and their measured IC50 readings.
- assay_target: ROCK2 (Homo sapiens (Human))
- Sequence (O75116 whole entry, species assumed): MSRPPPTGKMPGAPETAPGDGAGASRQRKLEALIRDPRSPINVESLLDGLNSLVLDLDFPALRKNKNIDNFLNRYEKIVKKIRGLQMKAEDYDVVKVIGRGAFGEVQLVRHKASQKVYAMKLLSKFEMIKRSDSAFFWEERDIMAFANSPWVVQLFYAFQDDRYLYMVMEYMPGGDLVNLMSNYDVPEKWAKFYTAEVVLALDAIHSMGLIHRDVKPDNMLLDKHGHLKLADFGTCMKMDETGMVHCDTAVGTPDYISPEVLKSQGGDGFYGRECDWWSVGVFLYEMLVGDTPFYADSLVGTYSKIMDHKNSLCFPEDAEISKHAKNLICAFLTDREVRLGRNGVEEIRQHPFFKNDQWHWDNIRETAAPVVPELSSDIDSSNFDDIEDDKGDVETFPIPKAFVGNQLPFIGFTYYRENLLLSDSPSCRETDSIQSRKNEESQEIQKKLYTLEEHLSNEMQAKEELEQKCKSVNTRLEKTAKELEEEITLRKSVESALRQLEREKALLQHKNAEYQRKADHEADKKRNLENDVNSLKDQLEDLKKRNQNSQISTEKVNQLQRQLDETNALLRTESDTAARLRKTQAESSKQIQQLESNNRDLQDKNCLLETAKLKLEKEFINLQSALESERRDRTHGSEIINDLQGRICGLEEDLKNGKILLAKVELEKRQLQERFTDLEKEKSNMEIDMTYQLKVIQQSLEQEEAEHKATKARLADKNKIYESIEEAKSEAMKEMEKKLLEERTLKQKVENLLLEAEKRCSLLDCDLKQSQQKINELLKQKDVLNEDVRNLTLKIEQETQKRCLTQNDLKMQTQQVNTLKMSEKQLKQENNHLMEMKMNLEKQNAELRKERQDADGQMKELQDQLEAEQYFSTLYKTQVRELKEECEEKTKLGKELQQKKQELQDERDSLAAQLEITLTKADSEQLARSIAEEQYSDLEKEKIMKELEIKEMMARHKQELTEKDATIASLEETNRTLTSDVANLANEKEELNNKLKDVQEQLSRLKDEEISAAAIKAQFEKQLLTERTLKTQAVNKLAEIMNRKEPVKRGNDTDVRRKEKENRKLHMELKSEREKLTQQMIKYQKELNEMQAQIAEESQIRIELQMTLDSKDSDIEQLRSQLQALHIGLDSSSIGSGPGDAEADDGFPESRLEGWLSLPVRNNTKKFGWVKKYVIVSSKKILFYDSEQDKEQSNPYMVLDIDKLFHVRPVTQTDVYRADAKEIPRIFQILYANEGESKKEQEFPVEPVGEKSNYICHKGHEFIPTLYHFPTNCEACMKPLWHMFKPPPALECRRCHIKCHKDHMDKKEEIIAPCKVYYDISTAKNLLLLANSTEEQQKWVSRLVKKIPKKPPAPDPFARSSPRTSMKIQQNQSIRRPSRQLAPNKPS
- procedure_details: ROCK assay (LABCHIP peptide phosphorylation), ROCK2
- Format: biochemical
- test_parameters: 5 μM ATP, 1.5 μM peptide substrate

Field: example entries. Status: answers known.
molecule	IC50
O=C(Nc1ccc(-c2n[nH]c(=O)c3ccccc23)cc1)c1nn(Cc2cccnc2)c2ccccc12	0.1 to 100 nM
O=C(Cc1ccc(-c2n[nH]c(=O)c3ccccc23)cc1)N1CCN(Cc2ccccc2)CC1	1000 to 50000 nM
O=C(Cc1ccc(-c2n[nH]c(=O)c3ccccc23)cc1)N1CCc2ccc(OCc3cccnc3)cc21	0.1 to 100 nM
CN(C)c1ccc2cc(C(=O)Nc3ccc(-c4n[nH]c(=O)c5ccccc45)cc3)[nH]c2c1	0.1 to 100 nM
O=C(Nc1ccc(-c2c[nH]c(=O)c3ccccc23)cc1)c1nc2c(s1)CCCC2	0.1 to 100 nM
Cn1cc(C(=O)Nc2ccc(-c3n[nH]c(=O)c4ccccc34)cc2)cn1	0.1 to 100 nM

Exercise: # IC50 lookup, item O=C(Nc1ccc(-c2n[nH]c(=O)c3ccccc23)cc1)c1c[nH]c2ccncc12
Solution: 0.1 to 100 nM

Exercise: COCCCn1nc(C(=O)Nc2ccc(-c3n[nH]c(=O)c4ccccc34)cc2)c2ccccc21 ?
Solution: 0.1 to 100 nM

Exercise: Record: O=C(Cc1ccc(-c2n[nH]c(=O)c3ccccc23)cc1)Nc1ccc2ncsc2c1
Solution: 0.1 to 100 nM

====

- assay_target: ROCK1 (Homo sapiens (Human), UniProt Q13464)
- procedure_details: ROCK assay (LABCHIP peptide phosphorylation), ROCK1
- Type: biochemical
- test_parameters: 5 μM ATP, 1.5 μM peptide substrate; read-out: ROCK1 IC50
pIC50: −log10 of the molar value.
Listing of entries alongside the reported pIC50.

Study these solved cases before continuing.
compound	pIC50
CN(C)c1ccc(C(=O)Nc2ccc(-c3n[nH]c(=O)c4ccccc34)cc2)cc1	7.00 to 10.00
O=C(Nc1ccc(-c2n[nH]c(=O)c3ccccc23)cc1)c1nn(CC2CCCO2)c2ccccc12 (centres unmarked)	7.00 to 10.00
O=C(Cc1ccc(-c2n[nH]c(=O)c3ccccc23)cc1)N1CCc2ccc([N+](=O)[O-])cc21	7.00 to 10.00
CC(C)(O)COc1ccc2c(c1)N(C(=O)Cc1ccc(-c3n[nH]c(=O)c4ccccc34)cc1)CC2	7.00 to 10.00
COc1ccc2c(=O)[nH]cc(-c3ccc(NC(=O)N4CCc5ccccc54)cc3C)c2c1	7.00 to 10.00
COc1ccc(-n2nnc(C)c2C(=O)Nc2ccc(-c3n[nH]c(=O)c4ccccc34)cc2)cc1	6.00 to 7.00
COc1ccc2c(c1)N(C(=O)Nc1ccc(-c3c[nH]c(=O)c4ccc(OC)cc34)cc1)CC2	7.00 to 10.00
O=C(Cc1ccc(-c2n[nH]c(=O)c3ccccc23)cc1)N[C@@H]1CCc2ccccc21	4.30 to 6.00

Exercise: Consider the compound CC(O)Cn1cc(C(=O)Nc2ccc(-c3n[nH]c(=O)c4ccccc34)cc2)cn1 (centres unmarked) and give its measured pIC50.
Solution: 4.30 to 6.00

Exercise: And what about the compound O=C(Nc1ccc(-c2c[nH]c(=O)c3ccccc23)cc1)c1ccc(N2CCCC2)cc1 ?
Solution: 6.00 to 7.00

Exercise: Request: CC(C)n1nc(C(=O)Nc2ccc(-c3n[nH]c(=O)c4ccccc34)cc2)c2ccccc21
Solution: 7.00 to 10.00

====

Below, each entry is listed with its recorded pIC50.
- assay_target: ROCK1 (Homo sapiens (Human))
- procedure_details: ROCK assay (LABCHIP peptide phosphorylation), ROCK1
- Assay type: biochemical
- test_parameters: 5 μM ATP, 1.5 μM peptide substrate; read-out: ROCK1 IC50
pIC50: −log10 of the molar value.

Exercise: What value of pIC50 has been reported for the following molecule? Cc1cc(NC(=O)c2nn(CC3CN(C)C3)c3ccccc23)ccc1-c1n[nH]c(=O)c2ccccc12
Solution: 7.00 to 10.00

Exercise: Lookup Cc1cc(NC(=O)c2cn(CC(C)(C)O)c3ccccc23)ccc1-c1n[nH]c(=O)c2ccccc12
Solution: 7.00 to 10.00

Exercise: Next molecule up: O=C(Cc1ccc(-c2c[nH]c(=O)c3ccccc23)c(F)c1)N1Cc2ccccc2C1
Solution: 6.00 to 7.00

Exercise: Consider next the molecule O=C(Nc1ccc(-c2n[nH]c(=O)c3ccccc23)cc1)c1onc2ccccc12 in the same way.
Solution: 7.00 to 10.00

====

- assay_target: ROCK1 (Homo sapiens (Human))
- procedure_details: ROCK assay (LABCHIP peptide phosphorylation), ROCK1
- Format: biochemical
- test_parameters: 5 μM ATP, 1.5 μM peptide substrate; read-out: ROCK1 IC50
Documented IC50 across a set of molecules

item_smiles	meas_value
O=c1[nH]nc(-c2ccc(Nc3nnc(-c4ccccc4)s3)cc2)c2ccccc12	101 to 1000 nM
O=C(Nc1ccc(-c2n[nH]c(=O)c3ccccc23)cc1)c1cn2ccnc(Cl)c2n1	101 to 1000 nM
COCCCn1nc(C(=O)Nc2ccc(-c3n[nH]c(=O)c4ccccc34)cc2)c2ccccc21	0.1 to 100 nM

Exercise: State the recorded IC50 for this entry: CN1CCN(C(=O)COc2ccc3c(c2)N(C(=O)Cc2ccc(-c4n[nH]c(=O)c5ccccc45)cc2)CC3)CC1
Solution: 101 to 1000 nM
